molecular target: GSK-3α/β; experiment: GSK-3α/β kinase assay (GS-1 peptide); settings: 15 μM ATP, 30° C.
ATTRIBUTE_MEASURED: IC50 (µM)

COMPOUND: Nc1nccc(-c2c[nH]c3nccc(OCc4ccccc4)c23)n1
READOUT_NUMBER: 0.0033

[a] Cn1cc(-c2ccnc(N)n2)c2c(O)ccnc21
[b] COc1ccnc2[nH]cc(-c3ccnc(SC)n3)c12 [Meriolin 12, reference compound]
[c] Nc1nccc(-c2c[nH]c3nccc(OC4CCCCC4)c23)n1
[d] COCCOc1ccnc2[nH]cc(-c3ccnc(N)n3)c12
# sort list by recorded IC50, greatest to least Answer by naming the labels in the order asked.
d, b, a, c
